TEST TARGET: T1, CRBN, Q96SW2;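 further: pooled lentiviral library of zinc finger degron-EGFP fusions in mCherry-positive Jurkat cells, FACS-sorted after compound exposure, with degron abundance counted by next-generation sequencing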
T1 chain: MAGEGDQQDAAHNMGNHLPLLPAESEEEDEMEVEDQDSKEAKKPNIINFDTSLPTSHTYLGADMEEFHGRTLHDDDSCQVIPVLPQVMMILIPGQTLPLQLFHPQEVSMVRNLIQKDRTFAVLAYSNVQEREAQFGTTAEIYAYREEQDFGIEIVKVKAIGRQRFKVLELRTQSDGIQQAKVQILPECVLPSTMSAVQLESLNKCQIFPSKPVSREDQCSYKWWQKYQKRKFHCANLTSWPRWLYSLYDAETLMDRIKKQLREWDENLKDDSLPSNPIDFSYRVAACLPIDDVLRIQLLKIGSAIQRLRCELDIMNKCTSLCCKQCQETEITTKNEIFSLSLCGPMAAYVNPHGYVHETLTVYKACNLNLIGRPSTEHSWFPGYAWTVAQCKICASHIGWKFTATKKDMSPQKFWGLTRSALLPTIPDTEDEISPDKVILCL
MEASUREMENT NOTES: log2 fold change of degron read counts, EGFP-low vs EGFP+ sorted cells (limma voom), compound-induced degradation; higher = more compound-induced degradation of the degron-EGFP fusion; degrons are variants of IKZF1/3 zinc finger 2; compound dose not given here
CONDITION: Jurkat; 18 h; compound: thalidomide
Over roughly 8,300 sequences, “log2 fold change of degron read counts, EGFP-low vs EGFP+ sorted cells (limma voom), compound-induced degradation” has its median near -1.1; the highest 2% begin near 3.2. Many of the other results were omitted from the sample, so the highest values are more common in it than they were.
Quick reference: log2 fold change of degron read counts of the listed items.
REPORTED PROPERTY: log2 fold change of degron read counts

1. FDCDQCGAYFTQKGNLLRHIKL [46F_47D_49D_50Q_52G_53A_54Y_55F_67L_, Q9UKT9]
-2.51
2. FMCPICGRPFTQKGNLLRHIKL [46F_47M_49P_50I_52G_53R_54P_55F_67L_, Q9UKT9]
0.856
3. LRCPICGFRCTQKGNLLRHIKL [46L_47R_49P_50I_52G_53F_54R_55C_67L_, Q9UKT9]
1.06
4. FQCNICGAVFTQKGNLLRHIKL [46F_47Q_49N_50I_52G_53A_54V_55F_67L_, Q9UKT9]
3.47
5. FVCPVCGAVFTQKGNLLRHIKL [46F_47V_49P_50V_52G_53A_54V_55F_67L_, Q9UKT9]
1.7
6. FYCDQCGAQFTQKGNLLRHIKL [46F_47Y_49D_50Q_52G_53A_54Q_55F_67L_, Q9UKT9]
-2.11
7. LQCPICGFICTQKGNLLRHIKL [46L_47Q_49P_50I_52G_53F_54I_55C_67L_, Q9UKT9]
3.45
8. LTCPICGFRCTQKGNLLRHIKL [46L_47T_49P_50I_52G_53F_54R_55C_67L_, Q9UKT9]
2.92
9. FKCNQCGAVFTQKGNLLRHIKL [46F_47K_49N_50Q_52G_53A_54V_55F_67L_, Q9UKT9]
-2.52
10. FFCNQCGHRFTQKGNLLRHIKL [46F_47F_49N_50Q_52G_53H_54R_55F_67L_, Q9UKT9]
-1.98
11. FYCNICGAVFTQKGNLLRHIKL [46F_47Y_49N_50I_52G_53A_54V_55F_67L_, Q9UKT9]
-0.489
12. FRCEICGHVFTQKGNLLRHIKL [46F_47R_49E_50I_52G_53H_54V_55F_67L_, Q9UKT9]
-2.21
13. FQCPQCGAVFTQKGNLLRHIKL [46F_47Q_49P_50Q_52G_53A_54V_55F_67L_, Q9UKT9]
3.42
14. FLCPVCGAHFTQKGNLLRHIKL [46F_47L_49P_50V_52G_53A_54H_55F_67L_, Q9UKT9]
0.943
15. FKCNICGAVFTQKGNLLRHIKL [46F_47K_49N_50I_52G_53A_54V_55F_67L_, Q9UKT9]
-1.81

The values you see were collected from the supplement of paper PMC12645437.
